Data credit: a melting point compilation (Tetko et al.; mined from patent text by program, amines drawn as free bases though some values may be those of a salt)

Residues, ends and D or L forms follow the SMILES beside them.
Listed molecules paired with reported melting point

>  <molecule>
CCc1ccc2oc(C(=O)Nc3ccc(-c4ccc(S(=O)(=O)NC(C(=O)O)C(C)C)cc4)cc3)c(C)c2c1O (stereo not drawn)

>  <melting point>
122 to 125 °C

$$$$
>  <molecule>
CC(=O)OCC1OC(n2cc(Cc3ccc(OC(F)(F)F)cc3)c3c(Cl)cccc32)C(OC(C)=O)C(OC(C)=O)C1OC(C)=O (stereo not drawn)

>  <melting point>
193 to 194 °C

$$$$
>  <molecule>
COC(=O)c1cc(-c2ccc(C(F)(F)F)cc2)oc1COC(C)=O

>  <melting point>
60 to 61 °C

$$$$
>  <molecule>
CCC1CCC2(O)C3CC=C4CC(O)CCC4(C)C3CC(O)C12C (stereo not drawn)

>  <melting point>
228 to 235 °C

$$$$
>  <molecule>
CC(=O)NC(Cc1ccccc1)C(=O)NC(Cc1ccccc1)C(=O)NC(Cc1c[nH]cn1)C(=O)O (stereo not drawn) (Ac-Phe-Phe-His-OH; configuration not given here)

>  <melting point>
143 to 145 °C

$$$$
>  <molecule>
Cc1cccc(C)c1N1CCc2c(C)nc3ccccc3c21

>  <melting point>
149 to 152 °C

$$$$
>  <molecule>
COc1ccc(Cl)cc1C(=O)N(CCCC(=O)O)C(c1ccccc1)c1ccccc1

>  <melting point>
176 to 178 °C

$$$$
>  <molecule>
CCCCCCCCCCCCSC(C)Cn1ccnc1 (stereo not drawn)

>  <melting point>
79.5 to 81 °C

$$$$

---

>  <molecule>
Clc1cc(Cl)cc(-c2n[nH]cc2Cl)c1

>  <melting point>
192 °C

$$$$
>  <molecule>
CC(=O)OCC(=O)C1=CCC2C3CCC4=CC(=O)CCC4(C)C3=CCC12C (stereo not given)

>  <melting point>
128 to 129 °C

$$$$
>  <molecule>
CCCCN(CC(=O)N1c2ccccc2N(C)C(=O)c2cnc(-c3ccccc3)nc21)C(C)(C)C

>  <melting point>
111 to 113 °C

$$$$
>  <molecule>
CN1CCN(c2cccc3c2C[C@H](NC(=O)c2ccc(C(=O)c4ccccc4)cc2)CC3)CC1

>  <melting point>
194 to 195 °C

$$$$
>  <molecule>
COc1cc(F)c(N2CCCC2=O)c(S(N)(=O)=O)c1

>  <melting point>
205 °C

$$$$
>  <molecule>
COc1ccc(CNc2cc(Cn3c(C(=O)c4cc(C)cc(C#N)c4)c(C(C)C)c(=O)[nH]c3=O)c(F)c(F)n2)cc1

>  <melting point>
133 to 134 °C

$$$$
>  <molecule>
O=C(N[C@H](Cc1ccccc1)C(=O)O)OCc1ccc2oc(-c3ccccc3)cc2c1

>  <melting point>
173 to 174 °C

$$$$
>  <molecule>
COc1ccc(S(=O)(=O)C2SC(=O)NC2=O)cc1 (stereo not given)

>  <melting point>
93 to 95 °C

$$$$
>  <molecule>
Cc1ccc2sc(S(N)(=O)=O)cc2c1

>  <melting point>
212 to 213 °C

$$$$
>  <molecule>
CC(C)NC(=S)Nc1cccc(-c2ccnc3c(C(=O)c4cccs4)cnn23)c1

>  <melting point>
208 to 210 °C

$$$$
>  <molecule>
COC(=O)C1=C(C)NC(C)=C(C(=O)OC)C1CCCCC(=O)O

>  <melting point>
150 to 151 °C

$$$$
>  <molecule>
Cc1cc(C2(C(F)(F)F)CC(c3ccc(F)cc3)=NO2)ccc1NC(=O)c1cccc(I)c1C(=O)NC(C)C (stereo not given)

>  <melting point>
128 to 130 °C

$$$$
>  <molecule>
N#Cc1cccc2c1nc(-c1c(F)cccc1F)n2Cc1c(F)cccc1F

>  <melting point>
153 to 155 °C

$$$$
>  <molecule>
CC(=O)N(O)Cc1ccc(OCc2ccccc2)cc1

>  <melting point>
119 to 120 °C

$$$$
>  <molecule>
Cc1ncnc(C)c1N

>  <melting point>
98 to 100 °C

$$$$
>  <molecule>
Cc1[nH]cc2c(=O)n(-c3ccc(Cl)cc3)nc-2c1-c1cccc(I)c1

>  <melting point>
306 to 312 °C

$$$$
>  <molecule>
O=C(O)C(=O)c1ccc(OCCCCOc2ccc3ccccc3c2)cc1

>  <melting point>
133 to 135 °C

$$$$
>  <molecule>
COc1ccc(-c2c(C#N)nn(-c3c(Cl)cc(C(F)(F)F)cc3Cl)c2N)cc1

>  <melting point>
222 °C

$$$$
>  <molecule>
COc1ccc2c(c1)C(=O)c1ccc(C(=O)O)cc1CC2

>  <melting point>
201 to 203 °C

$$$$
>  <molecule>
O=C(O)c1cc(C(F)(F)F)nn1-c1ncccc1Cl

>  <melting point>
175 to 176 °C

$$$$
